protocol summary: inhibitors of CMV-promoter luciferase reporter, dose response, counter-screen for Pax8 inhibitor project, cell-based, HEK293, luminescence, dry powder (AID 743020);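 note: HEK293 cells stably expressing the CMV luciferase reporter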
test conditions: SteadyGlo luminescence, 24 h; series mostly up to 35 µM
Results with a measured potency or affinity are listed apart. Records with an inconclusive call do not appear. Calls of active or inactive are those of the source.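 Rule for the calls: active = signal-lowering compounds whose fitted half-maximal concentration is at or below twice the top tested dose in every run; inconclusive = runs disagree, flat 30 to 70% inhibition, or poor curve fit; inactive = the rest.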

| smiles code | activity change, negative = inhibition |
| --- | --- |
| CCCC(=O)Nc1ccc2c(c1)C(=O)N(C)C[C@@H](OC)[C@H](C)CN(Cc1ccc(-c3ccccn3)cc1)[C@H](C)CO2 | inactive |
| Cc1ccc(S(=O)(=O)N(C)C[C@@H]2Oc3ccc(NC(=O)Nc4ccc(C(F)(F)F)cc4)cc3CC(=O)N([C@@H](C)CO)C[C@@H]2C)cc1 | inactive |
| O=C(C[C@H]1C[C@@H]2c3cc(NC(=O)Nc4ccc(C(F)(F)F)cc4)ccc3O[C@@H]2[C@@H](CO)O1)NCc1ccc(Cl)cc1 | inactive |
| Cc1cccc(-n2ncc(Cl)c(Cl)c2=O)c1 | inactive |

----------
Test system: Inhibin beta A chain (activin A)
protocol summary: INHBA (activin A) binders on microarrays, primary screen, biochemical, small-molecule microarray, 635 nm fluorescence scan (AID 1107);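 note: mouse activin A protein probed at 4.33 µg/mL on printed slides; score merges bound-protein fluorescence near 667 nm with spot signal-to-noise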
test conditions: small-molecule microarray binding, higher = more signal
The class of a record is decided solely by its measured composite z-score; consult lo (below 0.3), mid (0.3 to below 0.9), hi (0.9 or more)

Use the examples below as a reference point.
| compound | label value |
| --- | --- |
| [N-]=[N+]=Nc1ccccc1[C@H]1OC(c2ccc(OCCCO)cc2)=N[C@@]1(Cc1ccccc1)C(N)=O | hi |
| CC(C)(C)OC(=O)CC[C@@]12N=C(c3ccc(OCCCO)cc3)O[C@@H]1c1ccccc1CN(Cc1ccccc1)C2=O | mid |

Query: Band assignment needed for COC(=O)c1c2oc(c1C(=O)OC)C(=O)N[C@@H](C(C)C)Cn1nncc1C1(CCCCC1)NC(=O)N[C@H](CO)CC2 please.
Response: mid

Query: Band assignment needed for COc1ccc([Si](C)(C)[C@@H]2[C@@H](CCn3cc(CCO)nn3)O[C@]3(C(=O)N(Cc4ccc(N5C(=O)c6cccc7cccc5c67)cc4)c4ccccc43)[C@H]2C)cc1 please.
Response: mid

----------
Test system: Wnt5a (protein binding on small-molecule microarray)
protocol summary: Wnt5a binders on small-molecule microarray, primary screen, biophysical, 635/667 nm fluorescence (AID 1142);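 note: fluorescence read at 667 nm with signal to noise per printed feature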
test conditions: 635 nm fluorescence, higher = more signal
class 1 means recorded composite z-score is 0.01 or above; class 0 means it is below 0.01.

Use the examples below as a reference point.
| compound | label value |
| --- | --- |
| C=C(CCCC)/C(=C/C[C@@H](OC(=O)c1ccncc1)c1ccc(OCCO)cc1)c1cnc2ccccc2c1 | class 1 |
| O=C1c2ccccc2C(=O)c2cc([C@H]3Oc4ccccc4S(=O)(=O)N4CCC[C@@H]34)ccc21 | class 0 |
| CC(CO)N1C(=O)[C@@H]2C3C(=O)OCCC/C=C\[C@H]3OC23C=CCN(Cc2ccccc2)C(=O)[C@@H]13 (stereo partly drawn) | class 0 |
| CC(C)(C)OC(=O)CC[C@@]1(C(=O)NCc2ccccc2)N=C(c2ccc(OCCCO)cc2)O[C@@H]1c1ccccc1CN=[N+]=[N-] | class 1 |
| CC(C)N1C(=O)c2ccccc2[C@@H](C(=O)NCc2ccccc2)[C@@H]1c1ccc(CO)cc1 | class 1 |

Query: Please indicate if the recorded composite z-score for COC(=O)C(CC#Cc1ccc2c(c1)[C@]1(C(=O)N2)[C@H](C(N)=O)[C@H]2C(=O)O[C@H](c3ccccc3)[C@H](c3ccccc3)N2[C@@H]1c1ccc(O)cc1)C(=O)OC meets or exceeds 0.01.
Response: class 0

Query: Please indicate if the recorded composite z-score for O=C(O)[C@H]1C[C@H]2C(=O)NCC(=O)N2[C@H]1c1cccc(OCCO)c1 meets or exceeds 0.01.
Response: class 1

Query: Please indicate if the recorded composite z-score for C[N+](C)(C)CCCC[C@@H]1NC(=O)[C@@H]2C[C@H](C(=O)NCCCCCNC(=O)CS)[C@H](c3ccc(O)cc3)N2C1=O meets or exceeds 0.01.
Response: class 1

----------
target: Streptavidin (Streptomyces avidinii)
protocol summary: streptavidin binders on small-molecule microarray, primary screen, artefact control for SMM compound annotation, biophysical, 635/667 nm fluorescence (AID 1147);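 note: signal reflects streptavidin binding to arrayed compounds as a control protein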
test conditions: streptavidin binding, higher = more signal
quantity name: composite z-score
Numbers only.

Sample records with composite z-score:
| compound | quantity name | value measured |
| --- | --- | --- |
| COCCOC(=O)N1C(=O)[C@@]2(c3cc(C#CC4(O)CCCCCC4)ccc31)[C@H](c1ccc(O)cc1)N1[C@H](c3ccccc3)[C@H](c3ccccc3)OC(=O)[C@H]1[C@@H]2C(N)=O | composite z-score | 0.629 |
| CCCCCN1CC=CC23O[C@@H]4/C=C\CCC(C)OC(=O)C4[C@H]2C(=O)N(CCO)[C@@H]3C1=O (stereo partly specified) | composite z-score | -0.877 |
| CCN(CC)c1ccc(N2CC=CC34O[C@@H]5C=CCOC(=O)[C@@H]5[C@H]3C(=O)N(C(CO)C(C)C)[C@@H]4C2=O)cc1 (stereo partly specified) | composite z-score | -0.258 |

Below are 4 compounds. Give each one its composite z-score.
1. C[N+](C)(C)CCCC[C@@H]1NC(=O)[C@H]2C[C@@H](C(=O)NCCCCCN)[C@@H](c3cccc(OCCO)c3)N2C1=O
2. O=C(NC1CC1)[C@@H]1c2ccccc2C(=O)N(Cc2ccccc2C(F)(F)F)[C@H]1c1ccc(CO)cc1
3. COCCCNC(=O)[C@@]1(Cc2ccccc2)N=C(c2ccc(OCCCO)cc2)O[C@H]1c1ccccc1N=[N+]=[N-]
4. CC(C)[C@@H](C(=O)O)n1cc(-c2ccccn2)nn1

Response:
1: 1.04; 2: -0.47; 3: 0.356; 4: 0.62

Below are 3 compounds. Give each one its composite z-score.
1. C=CCNC(=O)[C@H]1[C@@H]2C(=O)O[C@@H](c3ccccc3)[C@@H](c3ccccc3)N2[C@@H](c2ccccc2OCCO)[C@]12C(=O)N(C(=O)OCCOC)c1ccc(C#CCCO)cc12
2. CC(C)C(=C=CC[C@@H](O)c1ccc(CO)o1)CCO
3. COc1ccc(/C=C/C(=O)c2cccc(OCC(=O)OC(C)(C)C)c2)cc1

Response:
0.876
-0.294
-0.152

----------
Would you mind telling me the reported composite z-score of each entry?
target: Fibroblast growth factor 10 (Homo sapiens)
protocol summary: FGF10 binders on small-molecule microarrays, primary screen, biochemical, small-molecule microarray, 635 nm fluorescence (AID 1102)
test conditions: FGF10 binding, fluorescence 635 nm, higher = more signal

Sample records with composite z-score:
| compound | quantity name | value measured |
| --- | --- | --- |
| COC(=O)c1c2oc(c1C(=O)OC)C(=O)N[C@@H](C(C)C)Cn1nncc1C1(CCCCC1)NC(=O)N[C@H](CO)CC2 | composite z-score | -0.0613 |
| COCCOC(=O)N1C(=O)[C@@]2(c3cc(C#CCNC(N)=O)ccc31)[C@H](c1ccccc1OCCO)N1[C@H](c3ccccc3)[C@H](c3ccccc3)OC(=O)[C@H]1[C@@H]2C(=O)Nc1nc2ccccc2s1 | composite z-score | 0.141 |
| C=CCC(OC(C)=O)[C@@H]1[C@@H](N(Cc2cccc3ccccc23)C(=O)Cc2ccc(OC)cc2)c2cc(OCCCO)ccc2N1C(=O)Cc1ccc(OC)cc1 (some centres undefined) | composite z-score | -0.0161 |
| COCCOC(=O)N1C(=O)[C@@]2(c3cc(C#CCCO)ccc31)[C@H](c1ccccc1OCCO)N1[C@H](c3ccccc3)[C@H](c3ccccc3)OC(=O)[C@H]1[C@@H]2C(=O)NC[C@H](O)c1ccccc1 | composite z-score | 1.16 |
| CCOC(=O)C[C@H]1[C@H](OC(=O)Cc2ccc3c(c2)OCO3)[C@@H](NC(=O)c2ccc3ccccc3c2)c2cc(OCCCO)ccc2N1C(=O)c1ccc2ccccc2n1 | composite z-score | 0.18 |

Below are 4 compounds. Give each one its composite z-score.
1. O=C(O)[C@H]1C[C@H]2C(=O)NCC(=O)N2[C@H]1c1cccc(OCCO)c1
2. C=CCC(OC(C)=O)[C@@H]1[C@@H](N(Cc2cc3ccccc3o2)C(=O)c2ccc(-c3ccccc3)cc2)c2cc(OCCCO)ccc2N1C(=O)c1ccc(-c2ccccc2)cc1 (some centres undefined)
3. O=C(NO)[C@]1(Cc2ccccc2)N=C(c2ccc(OCCCO)cc2)O[C@@H]1c1ccccc1
4. C=CCC(OC(C)=O)[C@@H]1[C@@H](N(Cc2cccc3ccccc23)C(=O)c2cccc3ccccc23)c2cc(OCCCO)ccc2N1C(=O)Cc1ccc(OC)cc1 (some centres undefined)

Response:
[0.082, 0.0657, -0.227, 0.481]
